System: NCI-H226
protocol: NCI tumour cell line growth inhibition, 48 h
Active and inactive are the calls of the source. Cut-off read from the data, not from the text of the source: active = GI50 up to about 1.1 µM and inactive = higher.
# valid calls are active, inactive; nothing else

The following compounds have reported results that may help.
Cc1ccc(NC(=O)CSc2nc(C)nc3c2sc(=S)n3-c2ccccc2)cc1 : inactive
CCNC1=C(NC(=O)c2ccc(F)cc2)C(=O)c2ccccc2C1=O : inactive
CCOC(=O)C12CCC(=O)N1N(C)c1ncccc1N2 (stereo not given) : inactive
O=S(=O)(SC1=NCCN1)c1ccc2ccccc2c1 : inactive
N#Cc1c(Cl)c2cc([N+](=O)[O-])ccc2n2c1nc1ccccc12 : inactive

Can you look up the reported call for COC(=O)C1=C(C)NC(C)=C(C(=O)OC)C1c1ccc(N=O)cc1 for me?
inactive

In this assay, the call recorded for Cc1c2c(cc3c1[nH]c1ccccc13)C(c1ccc(F)cc1)=NCC2 was what?
inactive

###

Tested on: MOLT-4
protocol: NCI tumour cell line growth inhibition, 48 h
Activity calls are given as the source filed them. No stated cut-off is given here; in the data, active = GI50 up to about 1.1 µM and inactive = higher. Where a SMILES comes first, the peptide text is derived from it. [ ]: non-standard residue; d: D form. The star is where a group is joined. Bn2Val = CC(C)[C@@H](C(=O)*)N(Cc1ccccc1)Cc1ccccc1; NH(3,4-diMeO-benzyl) = COc1ccc(CN*)cc1OC; NMeV = CN[C@H](C(=O)O)C(C)C
Write down one outcome, taken from TRUE for active, FALSE for inactive

CC1=C2C(=O)C3[C@@H](CCC4=CC(=O)CC[C@@]43C)C2CC[C@]12O[C@@H]1C[C@H](C)CN[C@H]1[C@H]2C (stereo partly drawn) : FALSE
COc1ccc(C2NCCc3c2[nH]c2ccccc32)cc1 (stereo not drawn) : FALSE
COc1ccc(CNC(=O)[C@@H]2CCCN2C(=O)[C@@H]2CCCN2C(=O)[C@H](C(C)C)N(C)C(=O)[C@@H](NC(=O)[C@H](C(C)C)N(Cc2ccccc2)Cc2ccccc2)C(C)C)cc1OC (Bn2Val-V[NMeV]PP-{NH(3,4-diMeO-benzyl)}) : FALSE
O=Cc1cc(O)c(O)c(O)c1-c1c(C=O)cc(O)c(O)c1O : FALSE
O=P(O)(CN1CCN(CP(=O)(O)c2ccccc2)CCN(CP(=O)(O)c2ccccc2)CC1)c1ccccc1 : FALSE
O=C1C=CC(=O)N1Nc1ccc([N+](=O)[O-])cc1[N+](=O)[O-] : FALSE

Would you mind telling me which call this test gave CO[C@H]1[C@@H](O)[C@@H](C)O[C@@H](O[C@H]2CC[C@@]3(C)[C@H](CC[C@@H]4[C@@H]3CC[C@]3(C)[C@@H](C5=CC(=O)OC5)[C@@H](OC(C)=O)C[C@]43O)C2)[C@@H]1O [NERITALOSIDE] ?
TRUE

// outcome(item) with item = Cn1c(=O)c(NC(=O)C(Cl)(Cl)Cl)nc2ccccc21
FALSE

###

Test system: NCI-H460
protocol: NCI tumour cell line growth inhibition, 48 h
Activity calls are given as the source filed them. Cut-off read from the data, not from the text of the source: active = GI50 up to about 1.1 µM and inactive = higher.
observed-property: GI50

Recorded results for 3 molecules are shown here.
O=c1ccc(=O)n(-c2ccccc2)[nH]1 : > 100 µM (inactive)
CCOC(=O)OC1(c2ccccc2)CCN(C)CC1 : > 100 µM (inactive)
CCSc1cc(=O)n(C)c(=O)n1C : > 100 µM (inactive)

What does the record list as GI50 for COC(=O)c1cc2c3ccccc3n(C(C)=O)c2cn1 ?
35.6 µM (inactive)

# lookup: GI50 of CC(C(=O)c1ccc(Cl)cc1)/C(=N/NC(=O)NN)C(=O)Nc1cccc(C(F)(F)F)c1 (centres undefined)
> 100 µM (inactive)

###

System: RPMI-8226
protocol: NCI tumour cell line growth inhibition, 48 h
Active and inactive are the calls of the source. Rule as the data show it: active = GI50 up to about 1.1 µM and inactive = higher.
// reported GI50 for each item listed

// known answers, use as guide
Cn1nc2ccc([N+](=O)[O-])c(Cn3nnc4ccccc43)c2n1 : > 100 µM (inactive)
O=C(Cn1c2ccc(Br)cc2c2nc3ccccc3nc21)N/N=C/c1ccccc1 : > 10 µM (inactive)

Here is another compound to look at.
Which GI50 value belongs to CC(=O)Nc1ccc(Cc2ccc3nc(O)cc(C)c3c2)cc1 ?
17.2 µM (inactive)

###

Tested on: NCI-H460
protocol: NCI tumour cell line growth inhibition, 48 h
Active and inactive are the calls of the source. Rule as the data show it: active = GI50 up to about 1.1 µM and inactive = higher.
Respond with a class label; see active, inactive

Worked examples, 3 molecules total:
COC(=N)CCCl : inactive
CC(C)CC(=O)OC[n+]1ccc(-c2c(COC(=O)NC(C)C)c(COC(=O)NC(C)C)c3n2CCC3)cc1 : inactive
COc1ccc(NC(=O)/C(=N/NC(N)=S)C2C(=O)NC(=S)NC2=O)c(OC)c1 : inactive

Hey, what did the test say about Cc1ccc2c(c1)c1ccc3c(c1n2C)C(=O)C=CC3=O ?
inactive

For this molecule, state the assay outcome: CCOC(=O)C(NC(=O)NC(C(=O)OCC)C(=O)OCC)C(=O)OCC
inactive

Hi, sorry to bother you, what did the test record for COC(=O)C1=C(C)NC(C)=C(C(=O)OC)C1c1ccc(N=O)cc1 ?
inactive

// return assay outcome for COC(=O)c1ccccc1NC(=O)C(=O)CC(=O)c1ccccc1NC1=CC(=O)C(=O)c2ccccc21
inactive

Which outcome did this test record for the molecule Cc1cc(N(CCOS(C)(=O)=O)CCOS(C)(=O)=O)ccc1/C=N/c1ccc(-c2nc(Cc3ccccc3)sc2C)cc1 ?
active

Dear all, I need the recorded test outcome for COc1cc(OC)c(OC)cc1/C=C/c1cnnc2ccccc12 , thank you.
inactive

GET /call?item= NC(=O)N/N=C(/CC1C(=O)Oc2ccccc21)c1ccccc1O (stereo not drawn) returns the recorded outcome of this test.
inactive

# fetch the recorded call for CC1=CCC2(C#N)CCC1C2=O (stereo not drawn) here
inactive

What outcome does the record of this test show for Nc1ccc(COC(O)CN2CCCCC2)cc1[N+](=O)[O-] (stereo not drawn) ?
inactive

// outcome(item) with item = Nc1ncnc2c1ccn2C/C=C\CO
inactive

Record lookup: outcome of this test for C[P+]1(Cc2ccccc2)CCCC1 ?
inactive

Please state the recorded outcome for this molecule: CC(C)OC(=O)NNc1c(Cl)cc(Cl)cc1Cl
inactive

What call does the record list for CCOC(=O)/C(O)=C/c1cc(OC)cc(=O)o1 ?
inactive

Assay outcome for COC(=O)C1Cc2cc3c(cc2C1=O)CCCC3 (stereo not drawn) : what was it?
inactive

Field: outcome | Entry: OC(c1cc(-c2ccccc2)nc2c1ccc1ccccc12)C1CCCCN1 (stereo not drawn)
inactive

Just curious, what result did COc1cc(OC)cc(C(=O)Cc2c(C(=O)c3ccccc3)c3ccccc3n2C(=O)c2ccccc2)c1 get here?
inactive

Fill in: this test's call for CCSCCCN(CCCSCC)CCCSCC is ___
inactive

###

Tested on: SK-MEL-5
protocol: NCI tumour cell line growth inhibition, 48 h
Calls of active or inactive are those of the source. No stated cut-off is given here; in the data, active = GI50 up to about 1.1 µM and inactive = higher.
observed-property: GI50

Check out these entries, answers already filled in.
C[C@]12CC[C@@H]3c4ccc(O)cc4CC[C@H]3[C@@H]1C/C(=C\c1ccncc1)[C@@H]2O : 4.18 µM (inactive)
COC1CC(N)(c2ccccc2)C(O)C(C)O1 (stereo not given) : > 100 µM (inactive)
Nc1nc2ncn(CC(O)COC(=O)c3ccccc3)c2c(=O)[nH]1 (stereo not given) : > 100 µM (inactive)

Find the recorded GI50 belonging to O=C(CN1CCNCCN(CC(=O)N2CCCCC2)CCNCC1)N1CCCCC1 and report it.
71.8 µM (inactive)

Would you kindly share the measured GI50 for COc1ccc(C2NCCc3c2[nH]c2ccccc32)cc1 (stereo not given) ?
22.5 µM (inactive)

###

Tested on: NCI-H226
protocol: NCI tumour cell line growth inhibition, 48 h
The source made the active and inactive calls. Cut-off read from the data, not from the text of the source: active = GI50 up to about 1.1 µM and inactive = higher.
Give your call using only these classes: active, inactive

Sample answers from the record:
O=C(c1ccccn1)C1(N2CCCCC2)CCCCC1 : inactive
CCOC(C[Se]CC(OCC)OCC)OCC : inactive
CC(C)CN(CC(C)C)C(=O)C1CCCC[C@@H]1C(=O)O (some centres undefined) : inactive
Cc1c(C)c(C)c(Cn2[nH]c(=O)n(C)c2=O)c(C)c1C : inactive
Cc1ccccc1OCC(COC(=O)Nc1ccccc1)OC(=O)Nc1ccccc1 (centres undefined) : inactive

What was the test verdict on CCC(=O)N1NC(=O)C(CC)(CC)C1=O ?
inactive

Recorded call for c1ccc2c(NCCCCCCCCNc3c4ccccc4nc4ccccc34)c3ccccc3nc2c1 ?
inactive

// outcome(item) with item = COc1cc(C(=O)n2c3ccc(Br)cc3c3nc4ccccc4nc32)cc(OC)c1OC
inactive

###

System: SF-539
protocol: NCI tumour cell line growth inhibition, 48 h
Activity calls are given as the source filed them. Rule as the data show it: active = GI50 up to about 1.1 µM and inactive = higher.
observed-property: GI50

CC(C)N(C(=O)C1(C)CC1)C(C)C : > 100 µM (inactive)

I'd like to know its GI50. The molecule in question is COc1ccc([C@H]2[C@@H]3CCc4ccccc4C3=NN2C(N)=S)cc1OC
> 100 µM (inactive)

Which GI50 is listed for CCn1c(=O)c2c(=O)[nH][nH]c2c2ccccc21 ?
> 100 µM (inactive)

What value of GI50 has been recorded for this entry: Nc1ccccc1/C=C\c1ccccc1
> 100 µM (inactive)

GI50 lookup needed for Cc1ccc([N+](=O)[O-])cc1NC(=O)c1cccc([N+](=O)[O-])c1O , thanks.
12.3 µM (inactive)

Looking for the measured GI50 of O=Cc1cc(O)c(O)c(O)c1-c1c(C=O)cc(O)c(O)c1O , can you help?
> 100 µM (inactive)

Suppose we examine the molecule CCOC(=O)C(NC(=O)OCc1ccccc1)C(=O)O (stereo unspecified) ; what GI50 value has been reported?
> 100 µM (inactive)

Item under review: C[P+](C)(C)C . Reported GI50?
> 100 µM (inactive)
